Tested on: Staphylococcus epidermidis H 6966/08
Experiment: In vitro anti-bacterial susceptibility, Mueller-Hinton broth
Type: cell-based
Settings: H6966/08, 24 h, MIC = IC90 value, NA = no significant activity, read-out: MIC SE 24 h
metricName: MIC (µM)
Field format: number, assumed µM, no unit text.

What MIC value was documented for this compound, CCOc1ccccc1NC(=O)c1ccccc1O [Compound 4, N-(2-Ethoxyphenyl)-2-hydroxybenzamide] ?
125

What MIC value was documented for this compound, CCCOc1ccccc1NC(=O)c1ccccc1O [Compound 5, 2-Hydroxy-N-(2-propoxyphenyl)benzamide] ?
31.2

What MIC value was documented for this compound, CC1(C)S[C@@H]2[C@H](NC(=O)Cc3ccccc3)C(=O)N2[C@H]1C(=O)O [PEN, Penicillin G, reference compound] ?
31.6

Let us move to another entry and its MIC.
What MIC value was documented for this compound, Cc1ccccc1NC(=O)c1ccccc1O [Compound 1, 2-Hydroxy-N-(2-methylphenyl)benzamide] ?
125
